The reported numbers originate from paper PMC6424956.

Catalogue of Papp at 4 h values
# Test details: Parallel artificial membrane permeability assay (PAMPA)
# Type: in vitro ADME
# Test conditions: pig, porcine brain polar lipid extract, 4 h, n = 3, values are Pe · 10^6, read-out: Pe · 10^6 (effective permeability)
Numbered stars: 1 amine (or outer) side, 2 acyl side, 3 side chain; on linkers, the order of the positions; unused ones are H or OH. Square brackets hold non-standard residues; d marks the D form. Peptide text beside a SMILES is read from it. X1 = O=C([C@H]1[C@@H](c2ccccc2)CCN1[*:1])[*:2]
Your answer is read as ×10⁻⁶ cm/s, so omit the unit and give the number.

Lookup result for CC[C@@H](C)[C@@H](NC(=O)[C@@H](Cc1ccc(O)cc1)NC(=O)[C@H]1CCCN1C(=O)[C@@H](CCCNC(=N)N)NC(=O)[C@@H](Cc1c[nH]cn1)NC(C)=O)C(=O)N[C@H](C)C(=O)N[C@H](Cc1c[nH]cn1)C(N)=O [Peptide 6D, Ac-hrpyiah-NH2] ; measured Papp at 4 h: 0.34

Sure, the documented Papp at 4 h for CC[C@@H](C)[C@@H](NC(=O)[C@@H](Cc1ccc(O)cc1)NC(=O)[C@H]1CCCCN1C(=O)[C@@H](CCCNC(=N)N)NC(=O)[C@@H](Cc1c[nH]cn1)NC(C)=O)C(=O)N[C@H](C)C(=O)N[C@H](Cc1c[nH]cn1)C(N)=O [Peptide 8D, Ac-hrxyiah-NH2] is 0.34

Memo: CC[C@@H](C)[C@@H](NC(=O)[C@@H](Cc1ccc(O)cc1)NC(=O)[C@H]1[C@@H](c2ccccc2)CCN1C(=O)[C@@H](CCCNC(=N)N)NC(=O)[C@@H](Cc1c[nH]cn1)NC(C)=O)C(=O)N[C@H](C)C(=O)N[C@H](Cc1c[nH]cn1)C(N)=O [Peptide 7-D, Ac-hrxyiah-NH2] (Ac-[dH][dR][X1][dY][dI][dA][dH]-NH2) , reported Papp at 4 h: 0.33

The reported Papp at 4 h of the molecule CC[C@H](C)[C@H](NC(=O)[C@H](C)NC(=O)[C@H](Cc1c[nH]cn1)NC(C)=O)C(=O)N[C@@H](Cc1ccc(O)cc1)C(=O)N1CCC[C@H]1C(=O)N[C@@H](CCCNC(=N)N)C(=O)N[C@@H](Cc1c[nH]cn1)C(N)=O [Peptide 1L, Ac-HAIYPRH-NH2] was 0.18

====

# Test details: Peptide stability in human serum
# Assay type: in vitro ADME
# Test conditions: male; HBSS buffer/human serum 10:90 (v/v), 200 µM, 37 °C, 24 h; non-linear regression; read-out: t1/2 in human serum (converted)
Quantity measured: half-life at 200 µM
Give me the value, and tack the unit on after it.

The molecule listed as CC[C@H](C)[C@H](NC(=O)[C@H](C)NC(=O)[C@H](Cc1c[nH]cn1)NC(C)=O)C(=O)N[C@@H](Cc1ccc(O)cc1)C(=O)N1CCC[C@H]1C(=O)N[C@@H](CCCNC(=N)N)C(=O)N[C@@H](Cc1c[nH]cn1)C(N)=O [Peptide 1L, Ac-HAIYPRH-NH2] shows half-life at 200 µM equal to 3.3 h

====

# Test details: In vitro bovine BBB cell-based model transport assay
# Test conditions: bovine, Papp RP-HPLC-PDA, 200 μM peptide in Ringer-HEPES, 2 h, 37 °C; quantified by RP-HPLC-PDA (220 nm); mean ± SD, n = 3
Numbered stars: 1 amine (or outer) side, 2 acyl side, 3 side chain; on linkers, the order of the positions; unused ones are H or OH. Square brackets hold non-standard residues; d marks the D form. Peptide text beside a SMILES is read from it. X1 = O=C([C@H]1[C@@H](c2ccccc2)CCN1[*:1])[*:2]; dAla(4-thiazolyl) = N[C@H](Cc1cscn1)C(=O)O; Phe(4-NH2) = Nc1ccc(C[C@H](N)C(=O)O)cc1; Phe(4-F) = N[C@@H](Cc1ccc(F)cc1)C(=O)O; hCha = N[C@@H](CCC1CCCCC1)C(=O)O
Quantity measured: Papp at 2 h, 200 μM (×10⁻⁶ cm/s)
The reply should be a number in ×10⁻⁶ cm/s, with the unit left off.

Example entries begin here.
# Compound, Papp at 2 h, 200 μM (×10⁻⁶ cm/s)
records = [
    ("CC(=O)N[C@@H](Cc1c[nH]cn1)C(=O)N[C@@H](C)C(=O)N[C@@H](CCC1CCCCC1)C(=O)N[C@@H](Cc1ccc(O)cc1)C(=O)N1CCC[C@H]1C(=O)N[C@@H](CCCNC(=N)N)C(=O)N[C@@H](Cc1c[nH]cn1)C(N)=O [Peptide 2L, Ac-HAxYPRH-NH2] (Ac-HA[hCha]YPRH-NH2)", 3.3),
    ("CC[C@@H](C)[C@@H](NC(=O)[C@@H](Cc1ccc(O)cc1)NC(=O)[C@H]1[C@@H](c2ccccc2)CCN1C(=O)[C@@H](CCCNC(=N)N)NC(=O)[C@@H](Cc1c[nH]cn1)NC(C)=O)C(=O)N[C@H](C)C(=O)N[C@H](Cc1c[nH]cn1)C(N)=O [Peptide 7-D, Ac-hrxyiah-NH2] (Ac-[dH][dR][X1][dY][dI][dA][dH]-NH2)", 4.8),
    ("CC[C@H](C)[C@H](NC(=O)[C@H](C)NC(=O)[C@H](Cc1c[nH]cn1)NC(C)=O)C(=O)N[C@@H](Cc1ccc(F)cc1)C(=O)N1CCC[C@H]1C(=O)N[C@@H](CCCNC(=N)N)C(=O)N[C@@H](Cc1c[nH]cn1)C(N)=O [Peptide 5L, Ac-HAIxPRH-NH2] (Ac-HAI[Phe(4-F)]PRH-NH2)", 2.9),
]

Consider CC[C@H](C)[C@H](NC(=O)[C@H](C)NC(=O)[C@H](Cc1c[nH]cn1)NC(C)=O)C(=O)N[C@@H](Cc1ccc(O)cc1)C(=O)N1CCC[C@H]1C(=O)N[C@@H](CCCNC(=N)N)C(=O)N[C@@H](Cc1c[nH]cn1)C(N)=O [Peptide 1L, Ac-HAIYPRH-NH2] . Its measured Papp at 2 h, 200 μM is 2.5

Record summary for CC[C@H](C)[C@H](NC(=O)[C@H](C)NC(=O)[C@H](Cc1c[nH]cn1)NC(C)=O)C(=O)N[C@@H](Cc1ccc(N)cc1)C(=O)N1CCC[C@H]1C(=O)N[C@@H](CCCNC(=N)N)C(=O)N[C@@H](Cc1c[nH]cn1)C(N)=O [Peptide 4L, Ac-HAIxPRH-NH2] (Ac-HAI[Phe(4-NH2)]PRH-NH2) : reported Papp at 2 h, 200 μM = 1.6

CC[C@@H](C)[C@@H](NC(=O)[C@@H](Cc1ccc(O)cc1)NC(=O)[C@H]1CCCN1C(=O)[C@@H](CCCNC(=N)N)NC(=O)[C@@H](Cc1cscn1)NC(C)=O)C(=O)N[C@H](C)C(=O)N[C@H](Cc1c[nH]cn1)C(N)=O [Peptide 9D, Ac-xrpyiah-NH2] (Ac-[dAla(4-thiazolyl)][dR][dP][dY][dI][dA][dH]-NH2) has a reported Papp at 2 h, 200 μM of 3.7

In plain terms, CC[C@@H](C)[C@@H](NC(=O)[C@@H](Cc1ccc(O)cc1)NC(=O)[C@H]1CCCN1C(=O)[C@@H](CCCNC(=N)N)NC(=O)[C@@H](Cc1c[nH]cn1)NC(C)=O)C(=O)N[C@H](C)C(=O)N[C@H](Cc1c[nH]cn1)C(N)=O [Peptide 6D, Ac-hrpyiah-NH2] has a documented Papp at 2 h, 200 μM of 4.5

====

# Tested on: in vitro bovine BBB cell-based model
# Test details: In vitro bovine BBB cell-based model transport assay
# Test conditions: 200 μM peptide in Ringer-HEPES, 2 h, 37 °C; quantified by RP-HPLC-PDA (220 nm); mean ± SD, n = 3; some values approximate (below LOQ)
Numbered stars: 1 amine (or outer) side, 2 acyl side, 3 side chain; on linkers, the order of the positions; unused ones are H or OH. Square brackets hold non-standard residues; d marks the D form. Peptide text beside a SMILES is read from it. X2 = O=C([C@@H]1[C@H](c2ccccc2)CCN1[*:1])[*:2]; dAla(4-thiazolyl) = N[C@H](Cc1cscn1)C(=O)O; Phe(4-F) = N[C@@H](Cc1ccc(F)cc1)C(=O)O
Readings of Transport (%) RP-HPLC-PDA for the listed molecules

Some entries whose results are on file:
# Molecule, Transport (%) RP-HPLC-PDA
measured = [
    ("CC[C@@H](C)[C@@H](NC(=O)[C@@H](Cc1ccc(O)cc1)NC(=O)[C@H]1CCCN1C(=O)[C@@H](CCCNC(=N)N)NC(=O)[C@@H](Cc1cscn1)NC(C)=O)C(=O)N[C@H](C)C(=O)N[C@H](Cc1c[nH]cn1)C(N)=O [Peptide 9D, Ac-xrpyiah-NH2] (Ac-[dAla(4-thiazolyl)][dR][dP][dY][dI][dA][dH]-NH2)", "4.4 ± 0.5%"),
    ("CC[C@@H](C)[C@@H](NC(=O)[C@@H](Cc1ccc(O)cc1)NC(=O)[C@@H]1[C@H](c2ccccc2)CCN1C(=O)[C@@H](CCCNC(=N)N)NC(=O)[C@@H](Cc1c[nH]cn1)NC(C)=O)C(=O)N[C@H](C)C(=O)N[C@H](Cc1c[nH]cn1)C(N)=O [7+D, Ac-hrxyiah-NH2] (Ac-[dH][dR][X2][dY][dI][dA][dH]-NH2)", "6.8 ± 1.2%"),
    ("CC[C@H](C)[C@H](NC(=O)[C@H](C)NC(=O)[C@H](Cc1c[nH]cn1)NC(C)=O)C(=O)N[C@@H](Cc1ccc(F)cc1)C(=O)N1CCC[C@H]1C(=O)N[C@@H](CCCNC(=N)N)C(=O)N[C@@H](Cc1c[nH]cn1)C(N)=O [Peptide 5L, Ac-HAIxPRH-NH2] (Ac-HAI[Phe(4-F)]PRH-NH2)", "3.4 ± 1.6%"),
]

Now let's try a different one.
The reported Transport (%) RP-HPLC-PDA of the molecule CC[C@@H](C)[C@@H](NC(=O)[C@@H](Cc1ccc(O)cc1)NC(=O)[C@H]1CCCCN1C(=O)[C@@H](CCCNC(=N)N)NC(=O)[C@@H](Cc1c[nH]cn1)NC(C)=O)C(=O)N[C@H](C)C(=O)N[C@H](Cc1c[nH]cn1)C(N)=O [Peptide 8D, Ac-hrxyiah-NH2] was 7.2 ± 0.9%
